Test system: lipase
Test: Lipase activity retention in detergent use solution (4000 ppm, 5 GPG water; p-nitrophenyl valerate, TRIS buffer pH 8.0)
Format: biochemical
Details: base formula, phosphonate 0.6 wt-%, use solution at 120º F., time 210 min
This listing pairs compounds with measured Relative Lipase Enzyme Activity.
measurement_name: Relative Lipase Enzyme Activity

compound=O=P(O)(O)CN(CP(=O)(O)O)CP(=O)(O)O result=32.19%
compound=CC(O)(P(=O)(O)O)P(=O)(O)O result=8.08%
compound=NCP(=O)(O)O result=12.05%
compound="O=C(O)CCC(CC(=O)O)(C(=O)O)P(=O)(O)O (stereo not shown)" result=6.80%
